# Assay Target: T1, Cynomolgus monkey BCMA (cynomolgus monkey)
# T1 construct: Soluble analyte in SPR; also called cyBCMA; Cyno BCMA
# Assay Comment: SPR, IgG immobilised, cyno BCMA analyte
Consider the following binders; for each one, report its kon.
Answers are plain numbers, in M⁻¹ s⁻¹.

Take a look at these entries with their results.
binder="A02_Rd4_6nM_C05 (antibody, V domains shown, IgG) VH: EVQLLESGGGLVQPGGSLRLSCAASGFTFSSYAMNWVRQAPGKGLEWVSAIFASGGSTYYADSVKGRFTISRDNSKNTLYLQMNSLRAEDTAVYYCARYWPMTPWGQGTLVTVSS VL: EIVLTQSPGTLSLSPGERATLSCRASQSVSSSYLAWYQQKPGQAPRLLMYDASIRATGIPDRFSGSGSGTDFTLTISRLEPEDFAVYYCQQYQRWPLTFGQGTKVEIK" quantity_unit="M⁻¹ s⁻¹" observed=1.36e+06
binder="C01_Rd4_0.6nM_C16 (antibody, V domains shown, IgG) VH: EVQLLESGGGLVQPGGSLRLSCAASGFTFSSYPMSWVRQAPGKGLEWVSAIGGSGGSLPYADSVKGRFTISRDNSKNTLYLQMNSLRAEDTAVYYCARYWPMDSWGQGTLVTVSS VL: EIVLTQSPGTLSLSPGERATLSCRASQSVSSTYLAWYQQKPGQAPRLLIYDASSRAPGIPDRFSGSGSGTDFTLTISRLEPEDFAVYYCQQYSSWPLTFGQGTKVEIK" quantity_unit="M⁻¹ s⁻¹" observed=4.95e+06

Task item: # kon lookup, item A02_Rd4_0.6nM_C13 (antibody, V domains shown, IgG) VH: EVQLLESGGGLVQPGGSLRLSCAASGFTFSSYAMNWVRQAPGKGLEWVSAISDSGGYRYYADSVKGRFTISRDNSKNTLYLQMNSLRAEDTAVYYCARYWPMSLWGQGTLVTVSS VL: EIVLTQSPGTLSLSPGERATLSCRASQSVSSSYWAWYQQKPGQAPRLLMYDASIRATGIPDRFSGSGSGTDFTLTISRLEPEDFAVYYCQQYESWPLTFGQGTKVEIK
Reply: 2.29e+06
